Assay: yeast display, Sf9 membrane polyspecificity reagent, FACS + sequencing; frameworks hold sequencing errors
measurement.label: polyreactivity (PSR sort gate)

>  <seq.string>
QVQLVESGAGLVQAGGSLRLSCAASGRIFTNYVLGWSRQAPGKERELVAAISWTGGRTYYADSVKGRFTISRDYAKNTVYLQMISLKPEDTAVYYCAARARIGTVDYWGQGTQVTVSS

>  <reported.result>
high polyreactivity

$$$$
>  <seq.string>
QVQLVESGGGLFQAGGSLRLSCAASGSTFKRYAMGWYRQAPGKERELVAAITLSGGNTYYADSVKGRFTISRYNAKNTVYLQMNSLKPEDTAVYYCAARRYRGYDYWGQGTQVTVSS

>  <reported.result>
high polyreactivity

$$$$

---

Assay: yeast display, Sf9 membrane polyspecificity reagent, FACS + sequencing; frameworks hold sequencing errors

>  <seq.string>
QVQVVESGGGLVQAGGSLRLSCAASGRILYPYTMGWYRQAPGKERELVAAISYSGGRTYYADSVKGRFTISRDNAKNTVYLQMNRLKPEDTAVYYFNAVFRVRGASQFDYWGQGTQVTVSS

>  <polyreactivity (PSR sort gate)>
high polyreactivity

$$$$
>  <seq.string>
QVQLVESGGGLVQAGGRLRLSCAGSGRIFISNTMGWYRQGPGKERELVASISLRGGSTYYADSVKGRFTISRDNAKNSVYLQMNSLKPEDTAVYYCAAATLRQYDDEYWGQCTQVTVSS

>  <polyreactivity (PSR sort gate)>
high polyreactivity

$$$$

---

Assay: yeast display, Sf9 membrane polyspecificity reagent, FACS + sequencing; frameworks hold sequencing errors

>  <seq.string>
QVQLVESGGGLVQAGGSLRLSCAASGFTFIRSAMGWYRQAPGKGRELVAAITVSGTRTYYADSVKGRFTISRDNAKNTVYLQMNSLKPEDTAVYYCNARDVYTGYGMGYWGQGTQVTVSS

>  <polyreactivity (PSR sort gate)>
high polyreactivity

$$$$
>  <seq.string>
QVQLVESGGGLVQAGGSLRLSCAASGRTFNWYAMGWYRQTPGKERELVAGITRIGTTTYYADSVKGRFTISRDNAKITVYLQMNSLKPEDTAVYYCASDQRKLGADFDSWGQGTQVTVSS

>  <polyreactivity (PSR sort gate)>
high polyreactivity

$$$$

---

Test: yeast display, Sf9 membrane polyspecificity reagent, FACS + sequencing; frameworks hold sequencing errors

>  <seq.string>
QVQLVESGGGLVQAGGSLRLSCAASGRTFDHNTMGWYRQAPGTERELVAAISWSGGTTYYADSVKGRFTISRDNAKNTGYLQMNSLKPEDTAVYDCAADRSPGSYGYQYDYWGQGTQVTVSS

>  <polyreactivity (PSR sort gate)>
low polyreactivity

$$$$
>  <seq.string>
QVQLVESGGGLVQAGGSLRLSCAATGSIFIRYAIGWYRHEPGKERELVAAITSTGSTSYADSVKWRFTISRDNAKNTVYLQMNSLKPEDTAVYYCAAAGFWHGYFGYGYWGQGTQVTVSS

>  <polyreactivity (PSR sort gate)>
low polyreactivity

$$$$
>  <seq.string>
QVQLVESGGGLVQAGGSLRLSCAASGSTFKSYTMGWYRQAPGKERELVAAITSSGRTNYADSVKGRFTISRDNAKNTVYLQMNSLKPEDTAVYYCAARWYYYPLLYDYWGQGTQVTVSS

>  <polyreactivity (PSR sort gate)>
low polyreactivity

$$$$
>  <seq.string>
QVQLVESGGGLVQAGGSLRVSCAASGRTFYFNAMGWYRQAPGKERELVAVISWSGGRTYYADSVKGRFTISRDNAKNTVYLLMNSLKPEDTAVYYCAADYQSGGSRYDYWGQGTQVTVSS

>  <polyreactivity (PSR sort gate)>
high polyreactivity

$$$$
>  <seq.string>
QVQLVESGGGLVQAGGSLRLSCAASGRIFGYNAMGRYRQAPGKERELVAAISSGASTIYADSVKGRFTISRDNAKNTVYLQMNSLKPEDTAVYYCAKEKVISPYPYSYYKSDYWGQGTQVTVSS

>  <polyreactivity (PSR sort gate)>
high polyreactivity

$$$$
>  <seq.string>
QVQLVESGGGLVQAGGSLRLSCAASGRIVDIYAMGWYRQAPGTERELVAAITWRGGSTYYADSVKGRFTISRDNAKNTVYLQMNSLKPEDTAVYYCAVDFFTPRGSYYWGQGTQVTVSS

>  <polyreactivity (PSR sort gate)>
low polyreactivity

$$$$
>  <seq.string>
QVQLVESGGGLVQAGGSLRLSCAASGRIFAGYGMGWYRQAPGKERELVAAISSGGSTYYADSVKGRFTISRDNAKNTVYLQMTSLKPEDTAVYDCATDGQSVPDDYYQNVDYDYWGQGTQVAVSS

>  <polyreactivity (PSR sort gate)>
low polyreactivity

$$$$
>  <seq.string>
QGQLVESGGGLVQAGGSLRLSCAASGFTFYYNAMGWYRQAPGQERELVAAISTRGGNTYYADSVKGRFTISRDNAKNTVYLQMNSLKPEDTAVYYCARKIRREGRYDYWGQGTQVTVSS

>  <polyreactivity (PSR sort gate)>
high polyreactivity

$$$$
>  <seq.string>
QVQLVESGGGLVQAGGSLRLSCAASGRTFGPYAMGWYRQAPGKEREFVAAISYSGGSTYYADSVKGRFTISRDNAKNTVYLQMNSLKPEDTAVYYCAAETYYGRIYWYIRDYWGQGTQVTVSS

>  <polyreactivity (PSR sort gate)>
low polyreactivity

$$$$
>  <seq.string>
QVQLVESGGGLVQAGGSLRLSCAASGRTFASYAMGWYRQAPGKERELVASIRYSGGSTHYADSVKGRFTISRDNAKNTVYLQMNSLKPEDTAVNYCNARPKFRTYNYWGQGTQVTVSS

>  <polyreactivity (PSR sort gate)>
high polyreactivity

$$$$
>  <seq.string>
QVQLVESGGGLVQAGGSLRLSCAASGRIFRAYAMGWYRQAPRKERELVAAISYRGGSTYYADSVKGRFTISRDNAKNTVYLQMNSLKPEDTAVYDCAADSDRSVWIYGYWGQGTQVTVSS

>  <polyreactivity (PSR sort gate)>
low polyreactivity

$$$$
>  <seq.string>
QVQLVESGGGLVQAGGSLRLSCAASGITFGANTMGWYRQAPGKERELVAAITISGGITHYADSVKGRFTISRDNAKNTVYLQMNRLKPEDTAVYYCAAGAYWRLYPYRQRNGGRMYYWGQGTQVTVSS

>  <polyreactivity (PSR sort gate)>
low polyreactivity

$$$$
>  <seq.string>
QVQLVESGGGLVQAGGSLRISCAASGSTLQYYAMGWYRQAPGKERELVAAISWRGARTYYADSVKGRFTISRDNAKNTVYLQMNSLKPQDTAVYYCAAVYGSRGYAGNYYWGHGTQVTVSS

>  <polyreactivity (PSR sort gate)>
high polyreactivity

$$$$
>  <seq.string>
QVQLVESGGCLVQAVGSLRLSCAASAFTFTQYGRGWYRQASGKEREFVATIRFSGDTTYYADSVKRRFTITRDHAKNTAYLQMNRLKPEDPAVYYCNADNRAFFVYPGSNRYDSWGQGTQVTVSS

>  <polyreactivity (PSR sort gate)>
low polyreactivity

$$$$
>  <seq.string>
QVQLVESGGGLVQAGGSLRLSCAASAFIYSSYAMGWYRQAPGKEMELVAAISYSGGSTYYADSVKGRFTISRDTAKNTVYLQMNRLKPEDTAVYYCAAELQIKIGFYTGEYEYYYWGQGTQVTVSS

>  <polyreactivity (PSR sort gate)>
high polyreactivity

$$$$
>  <seq.string>
QVQLVESGGGLVQAGGSLRLSCAASGRIFYHNAMGWYRQAPGKERELVAVISWSGTRTYYADSVKGRFTISRDNAKNTVYLQMNSLKPEDTAVYYFNVEPYYTSYWIYPYIYTYDYWGQGTQVTVSS

>  <polyreactivity (PSR sort gate)>
high polyreactivity

$$$$
>  <seq.string>
QDQLVDSGGGLVQAGGSLRLSCAASGRTFESYAMGWYRQAPGKERELVAAISYSGGSTYYADSVKGRFTISRDNAKNTVYLQMNSLKPEDTAVYYCAVRWRYKYDYWGQGTQVTVSS

>  <polyreactivity (PSR sort gate)>
high polyreactivity

$$$$
>  <seq.string>
QVQLVESGGGLVQAGGSLRLSCAASGRTFASYDMGWYRQEPGKERELVAAISVSGDSTYYADSVKGRFTISRDNAKNTFYLQMNSLKPEDTAVYYCNAEAQDYDHDYWGQSTQVTVSS

>  <polyreactivity (PSR sort gate)>
low polyreactivity

$$$$
>  <seq.string>
QVQLLESGGGLVQAGGSLRLSCAASGRIFASYAMGWYRQAPGKARELVAAISTGGNTYYADSVKGRFTISRDNAKNTVYLQMNSLKPEDTAVYDCAALSGAHEHFVEYDYWGQGTQVTVSS

>  <polyreactivity (PSR sort gate)>
low polyreactivity

$$$$
>  <seq.string>
QVQLVESGGGLVQAGGSLRLSCAACGSTFIPNGMGLYRQAPGKERELVAAITQDGGSTYYADSVKGRFTISRDNAKNTVYLQMNSLKPEDTAVYYCAASAGPYYEYGYWGQGTQVTVSS

>  <polyreactivity (PSR sort gate)>
low polyreactivity

$$$$
>  <seq.string>
QVQLVESGGGLVQAGGSLRLSCAASGRIFSRYAMGWYRQAPVKERELVATITRSGARTYYADSVKGRFTISRDNAKNTVYLQMNSLKPEDTAVYYCATPYKYVTGEDYWGQGTQVTVSS

>  <polyreactivity (PSR sort gate)>
high polyreactivity

$$$$
